- testedOn: human DGKα (Homo sapiens)
- Construct: TVMV protease cleavage site (C); Hexa-His (C); made in house; host or cells: Sf9 insect cells (baculovirus, Bac-to-Bac)
- Sequence (P23743 with tags, fused parts or gaps): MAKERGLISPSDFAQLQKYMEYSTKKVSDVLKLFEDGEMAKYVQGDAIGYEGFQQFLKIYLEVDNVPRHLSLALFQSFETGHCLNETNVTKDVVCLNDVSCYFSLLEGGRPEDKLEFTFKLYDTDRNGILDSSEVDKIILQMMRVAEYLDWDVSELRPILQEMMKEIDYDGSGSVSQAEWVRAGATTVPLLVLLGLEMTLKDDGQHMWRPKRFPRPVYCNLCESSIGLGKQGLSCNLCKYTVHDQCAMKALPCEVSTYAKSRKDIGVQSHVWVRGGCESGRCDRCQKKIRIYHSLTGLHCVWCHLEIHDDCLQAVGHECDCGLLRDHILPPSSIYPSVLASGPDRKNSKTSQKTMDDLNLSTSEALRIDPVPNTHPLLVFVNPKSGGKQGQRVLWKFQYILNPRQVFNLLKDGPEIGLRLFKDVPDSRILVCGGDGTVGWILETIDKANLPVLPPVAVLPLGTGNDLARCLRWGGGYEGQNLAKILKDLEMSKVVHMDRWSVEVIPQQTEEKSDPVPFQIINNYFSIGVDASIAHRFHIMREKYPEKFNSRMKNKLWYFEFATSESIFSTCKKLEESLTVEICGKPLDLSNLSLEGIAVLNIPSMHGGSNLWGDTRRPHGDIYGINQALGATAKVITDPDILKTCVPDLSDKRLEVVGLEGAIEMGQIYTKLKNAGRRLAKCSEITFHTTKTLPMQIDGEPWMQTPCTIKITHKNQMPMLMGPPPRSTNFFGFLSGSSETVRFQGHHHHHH
- protocolDetails: DGKα LIPGLO assay (extruded liposome substrate), in vitro DGK inhibition
- Assay type: biochemical
- reportedConditions: liposome (LIPGLO) assay; read-out: DGKa LIPGLO IC50
endpointName: log10(IC50) (log10 of the value in µM)
Log10 applied to IC50; unit prior to transform: µM.

(Q) Lab request: please report log10(IC50) under test system human DGKα (Homo sapiens) for COC[C@@H]1CN(c2cc(=O)n(C)c3ccc(C#N)nc23)[C@@H](C)CN1C(c1ccc(F)cc1)c1ccc(C#N)cc1 (single isomer, unassigned) [Example 1158]
(A) 0.81

(Q) Param item: C[C@@H]1CN(c2cc(=O)n(C)c3ccc(C#N)nc23)[C@@H](C)CN1C(c1ccc(F)cc1)c1ccc(P(C)(C)=O)cc1 (single isomer, unassigned) [Example 1292]
(A) 0.90

(Q) Param item: C[C@@H]1CN(c2cc(=O)n(C)c3ccc(C#N)nc23)[C@@H](C)CN1C(c1ccc(F)cc1)C1CCOCC1 (single isomer, unassigned) [Example 387]
(A) 0.18

(Q) Param item: Cc1ccc(C(c2cccc(F)c2)N2C[C@H](C)N(c3cc(=O)n(C)c4ccc(C#N)nc34)C[C@H]2C)cn1 (single isomer, unassigned) [Example 390]
(A) 1.23

(Q) Param item: CC[C@H]1CN(C(c2ccc(Cl)cc2)c2ccc(F)cn2)[C@H](CC)CN1c1cc(=O)n(C)c2ccc(C#N)nc12 (single isomer, unassigned) [Example 1033]
(A) -1.01
